molecular target: Tyrosine-protein kinase Lyn (Homo sapiens, UniProt P07948)
Sequence (P07948 whole entry): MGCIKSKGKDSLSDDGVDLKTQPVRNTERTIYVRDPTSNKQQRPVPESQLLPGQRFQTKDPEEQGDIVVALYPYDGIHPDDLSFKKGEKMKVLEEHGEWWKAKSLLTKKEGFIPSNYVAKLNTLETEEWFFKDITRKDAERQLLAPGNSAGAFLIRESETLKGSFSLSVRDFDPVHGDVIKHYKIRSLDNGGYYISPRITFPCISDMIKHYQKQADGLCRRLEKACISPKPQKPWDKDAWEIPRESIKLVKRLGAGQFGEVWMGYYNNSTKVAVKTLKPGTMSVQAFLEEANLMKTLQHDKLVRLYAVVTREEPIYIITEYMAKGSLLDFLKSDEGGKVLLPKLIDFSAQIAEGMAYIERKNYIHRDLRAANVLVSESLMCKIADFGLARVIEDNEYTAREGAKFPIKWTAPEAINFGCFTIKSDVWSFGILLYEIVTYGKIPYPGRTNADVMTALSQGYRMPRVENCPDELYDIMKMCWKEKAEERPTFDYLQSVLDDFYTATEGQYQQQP
Recorded endpoint: pIC50
Convention used: pIC50 is expressed as -log10 of the molar concentration.

// query Form field: reported pIC50 of CCN(CC)CCCC(C)Nc1nc(/C=C/c2c(Cl)cc(Cl)cc2Cl)nc2ccc(N)cc12 (stereo unspecified)
// result 4.98

###

test system: MDA-MB-231; assay: Cytotoxicity against human MDA-MB-231 cells assessed as inhibition of anchorage-independent colony formation on soft agar after 10 days by crystal violet staining based assay; type: functional, cell-based; details: MDA-MB-231, 240 h
Recorded endpoint: IC50

// query State the recorded IC50 for this entry: CCN(CC)CCCC(C)Nc1nc(/C=C/c2c(Cl)cc(Cl)cc2Cl)nc2ccc(N)cc12 (stereo unspecified)
// result 3 to 7 µM
